Numbers sourced from a melting point compilation (Tetko et al.; mined from patent text by program, amines drawn as free bases though some values may be those of a salt).

Listed molecules paired with reported melting point

Reference set (10 entries):
- CCc1c(C(=O)O)ccc(OC)c1C: 180 °C
- CS(=O)(=O)C(=C1CN(C(c2ccccc2)c2ccccc2)C1)c1ccc(Cl)cc1: 192 °C
- COC(=O)c1sc2cc(CCl)ccc2c1C: 128 to 129 °C
- O=C(O)c1cc(F)c(F)c(C2CC2)c1F: 95 to 97 °C
- Fc1ccc(-c2[nH]cc(C3=CC4CCCCN4CC3)c2-c2ccncc2)cc1 (stereo unspecified): 223 to 224 °C
- CC(=O)OC1OCC[C@@H]1NC(=O)[C@H](Cc1ccccc1)NC(=O)OC(C)(C)C (stereo partly specified): 156 to 157 °C
- C=C(C(=O)Nc1ccc(CCc2nnco2)cc1)c1cnn(C)c1-c1ccc(F)cc1: 177 to 178 °C
- C=CCOc1cc(NC(=O)C2=C(C(=O)N(C)C)CCCC2)ccc1Cl: 129 to 131 °C
- CCOC(=O)c1cc(-c2ccc(F)cc2)[nH]n1: 148 to 150 °C
- O=C1C(=Cn2ccnc2)c2ccccc2N1c1cccc(Cl)c1: 164 to 166 °C

Which melting point is reported for this molecule? COC(=O)Cn1c(Cl)c(Cl)c(Cl)c1Cl 115 °C

Which melting point is reported for this molecule? O=C(Nc1ccccc1F)O[C@@H]1CN=C(c2ccccc2)O[C@H]1c1ccccc1 (racemic) 98 °C
